# TGT: acyl-CoA synthetase long-chain family member 3 (ACSL3) (Homo sapiens, UniProt O95573)
# Sequence (O95573 whole entry): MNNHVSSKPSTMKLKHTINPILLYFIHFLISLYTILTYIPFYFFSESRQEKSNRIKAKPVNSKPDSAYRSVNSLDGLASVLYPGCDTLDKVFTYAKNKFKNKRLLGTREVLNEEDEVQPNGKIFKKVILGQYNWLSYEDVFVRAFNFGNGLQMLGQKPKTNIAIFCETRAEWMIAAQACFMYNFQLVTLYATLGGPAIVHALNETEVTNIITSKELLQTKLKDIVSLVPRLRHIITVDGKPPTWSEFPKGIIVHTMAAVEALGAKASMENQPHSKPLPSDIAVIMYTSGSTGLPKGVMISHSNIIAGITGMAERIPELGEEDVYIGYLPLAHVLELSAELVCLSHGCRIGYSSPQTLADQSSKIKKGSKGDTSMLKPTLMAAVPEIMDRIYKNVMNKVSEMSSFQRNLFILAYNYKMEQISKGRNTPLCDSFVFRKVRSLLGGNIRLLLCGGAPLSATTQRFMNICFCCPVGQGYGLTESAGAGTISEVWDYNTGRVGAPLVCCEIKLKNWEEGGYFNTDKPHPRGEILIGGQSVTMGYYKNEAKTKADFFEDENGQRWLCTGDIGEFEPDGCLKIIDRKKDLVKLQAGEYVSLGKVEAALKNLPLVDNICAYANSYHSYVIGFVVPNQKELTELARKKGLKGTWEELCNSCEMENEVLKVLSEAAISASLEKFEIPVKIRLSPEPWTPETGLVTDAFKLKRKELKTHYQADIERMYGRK
# TEST PROTOCOL: microscale thermophoresis
# Format: binding

{"SMILES": "CC1=C(/C=C/C(C)=C/C=C/C(C)=C/CO)C(C)(C)CCC1", "Kd (nM)": 1850}

* * *

# TGT: acyl-CoA synthetase long-chain family member 3 (ACSL3) (Homo sapiens, UniProt O95573)
# TEST PROTOCOL: microscale thermophoresis
# Assay type: binding
pKd: −log10 of the molar value.

{"MOLECULE": "CNC(=O)/C=C(C)/C=C/C=C(C)/C=C/C1=C(C)CCCC1(C)C [D3]", "pKd": 5.89}

* * *

# TGT: acyl-CoA synthetase long-chain family member 3 (ACSL3) (Homo sapiens)
# TEST PROTOCOL: microscale thermophoresis
# Type: binding
ASSAY READOUT: Kd (µM)

{"COMPOUND": "CC1=C(/C=C/C(C)=C/C=C/C(C)=C/C(=O)O)C(C)(C)CCC1 [ATRA, all-trans retinoic acid]", "ASSAY READOUT": "Kd", "OBSERVED MEASUREMENT": 12.8}
